B1: WDFY2 (parent)
chain: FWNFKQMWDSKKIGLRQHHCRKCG

variants of: B1; assay: protein stability index of a GFP-peptide fusion (GPS, HEK-293T) (PSI 1-6); higher = more stable; conditions: c terminus: a fixed tail appended;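 also: lentivirally expressed fusions sorted by FACS into six bins by GFP to DsRed ratio, PSI derived from sequencing read proportions per bin multiplied by bin number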
Below, each of the variants is paired with its reported protein stability index value.
Lab note: record just the number, no unit beside it.

In the examples that follow, each entry is paired with its recorded protein stability index.
| changes | recordedResult |
| --- | --- |
| Q17L | 1.99 |
| Q6P | 2.04 |
| C23L | 2.01 |
| H19S | 2.02 |
| G14L | 2 |

[Q] Recorded protein stability index for `K5A` , please?
[A] 1.81

[Q] Item `R21G` has what recorded protein stability index?
[A] 1.85

[Q] GET /values?readout=protein stability index&item= `G24P`
[A] 2.03

[Q] GET /values?readout=protein stability index&item= `Q17C`
[A] 1.61
